Where these numbers come from: ChEMBL document CHEMBL5725610

Target: Protease (Human immunodeficiency virus 1, UniProt Q9YQ12)
Sequence (Q9YQ12 whole entry): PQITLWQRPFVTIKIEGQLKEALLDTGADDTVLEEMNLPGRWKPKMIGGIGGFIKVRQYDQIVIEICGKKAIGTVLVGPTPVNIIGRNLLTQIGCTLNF
Value type: EC50 (µM)

INSERT INTO results (compound, experimental_result) VALUES
  ('Nc1ncnc2c1ncn2CCOCP(=O)(O)O [ADEFOVIR]', 16);
